# experimental.protocol: NCI Yeast Anticancer Drug Screen. Data for the rad50 strain (AID 155);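 note: 0% = growth of vehicle-only cultures of the same strain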
# settings: S. cerevisiae rad50 strain growth inhibition, stronger effect = higher value; at 50.0 µM unless noted
# Description: Growth inhibition of yeast strains with defined genetic alterations is measured as a screen for potential anti-cancer activity. Selected strains with alterations in DNA damage repair or cell cycle control were exposed to compounds and growth inhibition was measured relative to vehicle treated controls. The strain used in this assay is rad50
About 79,000 compounds went through this panel and 15% of them were active in at least one assay; those are over-represented in the sample as a whole.
experimental.endpoint: growth inhibition (%)
Write down the numeric answer in % and omit the unit.

(Q) GET /values?readout=growth inhibition&item= C=CCN(N=O)C(=O)N(CCCCC(NC(C)=O)C(=O)NCc1ccccc1)Cc1ccccc1 (stereo unspecified)
(A) -0.95

(Q) Then "N#C/C=C\c1ccc(-c2cc(C(F)(F)F)cc(C(F)(F)F)c2)o1" ?
(A) -49

(Q) Then "O=C(O)CCSCCC(=O)O" ?
(A) -22.8

(Q) Then "C=CCOC(=O)COc1ccc(Cl)cc1" ?
(A) -0.95

(Q) Then CC(CC(C)C(=O)O)C(=O)O (stereo unspecified) ?
(A) -13.5

(Q) Then "Cc1nc2c(N)n[nH]c(=O)n2n1" ?
(A) -20.9

(Q) Then "Cc1ccccc1N=C(N)N" ?
(A) 4.3

(Q) Then "CCCOC(=O)c1ccc([N+](=O)[O-])cc1" ?
(A) 16.4

(Q) Then "O=C(NCc1ccco1)Nc1ccccc1C(F)(F)F" ?
(A) 2.3

(Q) Then "CC1=C(C(=O)Nc2cc(=O)n(C)c(=O)n2C)C(c2cccc([N+](=O)[O-])c2)C(C(=O)Nc2cc(=O)n(C)c(=O)n2C)=C(C)N1" ?
(A) 8.7

(Q) Then "COc1ccc(/C=C2\C(=O)Nc3ccccc32)cc1OC" ?
(A) -3.4

###

Exercise: for every item that follows, state its recorded growth inhibition.
# experimental.protocol: NCI Yeast Anticancer Drug Screen. Data for the bub3 strain (AID 167)
# settings: S. cerevisiae bub3 mutant strain, stronger effect = higher value; at 50.0 µM unless noted
This is part of a sample that, as a whole, favours compounds with a hit. Of some 79,000 tested, about 15% had one in any assay. Where a SMILES comes first, the peptide text is derived from it. [ ]: non-standard residue; d: D form. The star is where a group is joined. ξ: configuration not given here. ξF = NC(Cc1ccccc1)C(=O)O; Cbz = O=C(OCc1ccccc1)*; Aib = CC(C)(N)C(=O)O
Write down the numeric answer in % and omit the unit.

(Q) GET /values?readout=growth inhibition&item= "CNCc1cc(Br)cc(Br)c1O"
(A) 1.45

(Q) Then O=P(O)(O)OC1OC(CO)C(O)C(O)C1O (stereo not drawn) ?
(A) -24.8

(Q) Then "Cc1ccnc(NS(=O)(=O)c2ccc(N=[N+]=[N-])cc2)n1" ?
(A) -17.6

(Q) Then COc1ccc(/C(CC2OC(=O)c3ccccc32)=N\NC(=O)C[N+](C)(C)C)cc1 (stereo not drawn) ?
(A) 12.1

(Q) Then CCOC(=O)C(Cc1ccccc1)NC(=O)c1ccc(N=NN(C)C)cc1 (stereo not drawn) ?
(A) 6.65

(Q) Then CN(C)C1=CC(=S)NC(c2ccccc2)C1 (stereo not drawn) ?
(A) -15

(Q) Then "S=C(NCc1cccc(Cl)c1)Nc1ccccc1" ?
(A) 29.6

(Q) Then "NC(=O)OCCOC(N)=O" ?
(A) 15.8

(Q) Then "Cc1cc(C)c2ccc(Cl)nc2n1" ?
(A) -4.35

(Q) Then "O=C1c2ccccc2C(=O)c2c1ccc1c3ccccc3n(-c3ccccc3)c21" ?
(A) 6.65

(Q) Then "Cc1cc(OCC(=O)O)cc(C)c1C" ?
(A) -4.55

(Q) Then "COC(NC(=O)Nc1ccccc1C)(C(F)(F)F)C(F)(F)F" ?
(A) -24.4

(Q) Then "CCO[C@@H]1OC(=O)[C@H]2C(c3ccc(Cl)cc3)=NO[C@@H]12" ?
(A) 29.8

(Q) Then CC(CC(=O)c1ccccc1)[N+](=O)[O-] (stereo not drawn) ?
(A) -7.85

(Q) Then C=C(C)C1CCC2(C)C1CCC1(C)C2CCC2C3(C)C4OC(OC4=O)C(C)(C)C3CCC21C (stereo not drawn) ?
(A) 17.6

(Q) Then "Cc1ccc(Cl)cc1NC(=O)Nc1ccccc1Cl" ?
(A) 8.85

(Q) Then "CCCCCCCCCCCC(=O)OC(COCCC(C)C)COCCC(C)C" ?
(A) -11.9

(Q) Then O=C(c1ccccc1)C1CC1C(=O)c1ccccc1 (stereo not drawn) ?
(A) 38.3

(Q) Then "COc1cc(OCc2ccc3oc(=O)c(-c4ccccc4)nc3c2)cc(OC)c1OC" ?
(A) 19.2

(Q) Then COc1ccc2c3c([nH]c2c1N)C(C)NCC3 (stereo not drawn) ?
(A) -18.3

(Q) Then "CCOC(=O)/C(Cc1ccc2ccccc2n1)=N/O" ?
(A) 13.7

(Q) Then "Cc1cc(Cl)ccc1OCC(=O)NCCO" ?
(A) 2.8

(Q) Then COc1ccc(OC(C)C(=O)O)c2c(=O)ccccc12 (stereo not drawn) ?
(A) 5.7

(Q) Then CC1CC(C)OC(c2ccccc2Cl)O1 (stereo not drawn) ?
(A) 12.7

(Q) Then "COc1cc(Nc2nc3ccc(C(F)(F)F)cc3nc2C(=O)O)cc(OC)c1OC" ?
(A) 24.8

(Q) Then NC(CCO)P(=O)(O)O (stereo not drawn) ?
(A) 2.05

(Q) Then "O=C(Nc1ccc(Cl)cc1Cl)c1cc2nc3ccccc3c(=O)n2c2ccccc12" ?
(A) 17.3

(Q) Then COC(=O)C(C)(C)NC(=O)C(Cc1ccccc1)NC(=O)C(C)(C)NC(=O)OCc1ccccc1 (stereo not drawn) (Cbz-[Aib]-[ξF]-[Aib]-OMe) ?
(A) 12.4

(Q) Then "COC(=O)c1cc(Cl)ccc1OCC(=O)Nc1ccccc1" ?
(A) -6.55

(Q) Then "COc1ccc(-c2oc3c(CC(=O)O)cccc3c(=O)c2OC)cc1" ?
(A) -12.7

(Q) Then Cc1c(Cl)cccc1NC(=O)C(C)NCC(C)C (stereo not drawn) ?
(A) 14.8

(Q) Then COC1CCC(=O)N1CN(C(C)=O)c1ccc(C)cc1 (stereo not drawn) ?
(A) 3.75

(Q) Then "Cc1ccc(O)c(C=NCCN=Cc2cc(C)ccc2O)c1.[Cu+2]" ?
(A) -20.6

(Q) Then COC(=O)c1ccccc1CC1Cc2ccc3c(c2C1=O)CCCC3 (stereo not drawn) ?
(A) 17.8

(Q) Then Cc1onc(-c2ccccc2)c1C(C)(O)c1ccccc1 (stereo not drawn) ?
(A) 18.2

(Q) Then CCN(CC)CCCC(C)NCC1C(O)CCC2CN3CCc4c([nH]c5ccccc45)C3CC21 (stereo not drawn) ?
(A) 18.6

(Q) Then "COc1ccc(C=NCC(OC)OC)cc1OCc1ccccc1" ?
(A) -3.05

(Q) Then OCC12OCC(C=CC1O)O2 (stereo not drawn) ?
(A) -0.15

(Q) Then "CCOC(=O)/N=N/C(C)(C)OC(C)=O" ?
(A) -20.4

(Q) Then "COc1ccc(-c2nnc(N)s2)cc1OC" ?
(A) -7.05

(Q) Then "CC(C)NC(=O)OCc1c(COC(=O)NC(C)C)c(-c2ccc(F)cc2F)n2c1CCC2" ?
(A) -13.6

(Q) Then CC(=O)c1ccc(NC(=O)C(=O)C(C(=O)c2ccc(Cl)c(Cl)c2)C2OC(=O)c3ccccc32)cc1 (stereo not drawn) ?
(A) 60.3

(Q) Then "O=c1c2cc3c(=O)n4c(cc(-c5ccccc5)c5cc(Cl)ccc54)nc3cc2nc2cc(-c3ccccc3)c3cc(Cl)ccc3n12" ?
(A) -1.05

###

# experimental.protocol: NCI Yeast Anticancer Drug Screen. Data for the cln2 rad14 strain (AID 165);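 note: 0% = growth equal to vehicle treated cultures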
# settings: S. cerevisiae cln2 rad14 strain, stronger effect = higher value; at 50.0 µM unless noted
About 79,000 compounds went through this panel and 15% of them were active in at least one assay; those are over-represented in the sample as a whole.
experimental.endpoint: growth inhibition (%)
Write down the numeric answer in % and omit the unit.

(Q) GET /values?readout=growth inhibition&item= "C=C=C(C)[Si](C)(C)C"
(A) -3.25

(Q) Then CCc1cccc(CC)c1N1C(=O)CC(Sc2ccccc2N)C1=O (stereo unspecified) ?
(A) -0.85

(Q) Then "O=C(c1ccccc1)c1ccc(O)cc1" ?
(A) 13.9

(Q) Then "C/C(=N\NC(=O)Nc1ccc(N=Nc2ccccc2)cc1)c1ccncc1" ?
(A) 1.5

(Q) Then "CN(Cc1ccccc1Cl)C(=O)Nc1cccc(Cl)c1" ?
(A) 80

(Q) Then CC1CC(=O)C(CC(=O)O)C1C(C(=O)C(=O)Nc1c(C#N)cccc1[N+](=O)[O-])[N+](=O)[O-] (stereo unspecified) ?
(A) 15.8

Every entry's value here was drawn from PubChem BioAssay (NCI).
